- protocol-details: Tmax in rat brain at 30 mg/kg, ip
- Type: ADME, organism-based
- Set-up: dose 30 mg/kg, route intraperitoneal
measured-endpoint: Tmax (min)
Kindly provide the numeric value in min only, without the unit symbol.

Look up and state reported Tmax for `O=C(c1ccc(Cn2ccc3cccc(Cl)c32)cc1)N1CC[C@H](N2CCCC2)C1` 30

====

Collected clearance values appear next to each entry.
- protocol-details: Plasma clearance in rat at 2 mg/kg, iv
- Type: ADME, organism-based
- Design: dose 2 mg/kg, route intravenous
Answer with a number only, understood to be in mL/min/kg.

Identify measured clearance associated with `O=C(c1ccc(Cn2cnc3ccccc32)cc1)N1CC[C@H](N2CCCC2)C1` 56

Okay, now this molecule:
Quick one: give measured clearance for `O=C(c1ccc(Cn2ccc3cccc(Cl)c32)cc1)N1CC[C@H](N2CCCC2)C1` 112
